Taken from PubChem BioAssay (NCI).

Test system: DLD-1 colon
measurementDescription: NCI tumour cell line growth inhibition, 48 h
assayMetric: TGI

1. CC12OC3CC(O1)C1(C=O)C4CCC5(C)C(c6ccc(=O)oc6)CCC5(O)C4CCC1(C3)O2 (stereo not given) | 0.483 µM
2. CCOC(=O)C1(Cc2ccc3ccccc3c2)CCCCCN1 (stereo not given) | 56.9 µM
3. Cn1c2c(cc(-c3ccccc3)c1=O)COc1ccccc1-2 | > 100 µM
4. CCCCCC(=O)Cc1cc(OC)cc2c1C(=O)Oc1cc(O)c(C(=O)O)c(CC(=O)CCCCC)c1O2 | > 100 µM
5. Cc1cc(C)c2[s+]snc2c1 | > 100 µM
6. O=c1[nH]c2c(O)cccc2c2cc3c(c(O)c12)OCO3 | 62.4 µM
7. O=C(Nc1cc(Cl)c(Cl)cc1Cl)C(=O)C(C(=O)c1ccc2ccccc2c1)C1OC(=O)c2ccccc21 (stereo not given) | 32.9 µM
8. CO[C@@]12CC(=O)/C(=C(O)\C=C\c3ccccc3)C(=O)[C@]1(OC)Cc1ccccc1O2 | > 100 µM
9. O=C(O)Cc1ccc2c(c1O)C(=O)c1c(ccc(CC(=O)O)c1O)C2=O | > 100 µM
10. N#Cc1ccccc1Nc1ccccc1S | > 100 µM
11. CC1=NN(c2ccccc2)C(=O)C1=C1SCCCS1 | 45.9 µM
12. CC(C)c1cccc(C(C)C)c1NC1=CC(=O)C(=O)c2ccccc21 | > 100 µM
13. C/C(CN1C(=O)c2ccccc2C1=O)=N\NS(=O)(=O)c1ccc(F)cc1 | > 100 µM
14. O=C1C=C(Nc2ccccc2C(=O)CC(=O)C(=O)Nc2ccc(Cl)c(Cl)c2)c2ccccc2C1=O | > 100 µM
15. CC(C)(C)C[P+](C)(C)c1ccccc1 | > 100 µM
16. O=[N+]([O-])c1cc(/C=N/NS(=O)(=O)c2ccc(F)cc2)c(O)c([N+](=O)[O-])c1 | > 100 µM
17. COC(=O)c1cc(C)n(NC(=O)OC(C)(C)C)c1C | > 100 µM
18. COCC12CC(CC1=O)C1C2ON2c3ccccc3C(=O)C12c1ccccc1 (stereo not given) | > 100 µM
19. O=C(/C=C/c1ccc(Cl)c(Cl)c1)C1CCC(Cl)CC1 (stereo not given) | 29.8 µM
20. Nc1ccc(C(=O)NN2C(=O)C(Cl)C2c2cccc([N+](=O)[O-])c2)cc1 (stereo not given) | 34.7 µM
21. COc1cc(C2C(Cl)C(=O)N2NC(=O)Cc2ccccc2)ccc1O (stereo not given) | > 100 µM
22. CS(=O)(=O)c1nc(Cl)c(Cl)c(C#N)c1Cl | 3.13 µM
23. C[N+]1=c2c3cccc4cccc(c(=O)n2CCC1)c43 | 46.9 µM
24. CCOC(=O)C1CC/C(=C(/C#N)C(=O)OC)N1 (stereo not given) | > 100 µM
25. CC1=NN(c2ccccc2)C(=O)C1N=Nc1ccc(Br)c(C)c1 (stereo not given) | > 100 µM
